# Test system: SNB-19 CNS
# assay_protocol: NCI-60 one-dose screen, 48 h
# measurement_context: 10 µM unless noted
# Method: Growth inhibition of the SNB-19 human tumor cell line is measured as a screen for anti-cancer activity. Cells are grown in 96 well plates and exposed to the test compound for 48 hours. Compounds are tested at a single concentration, which is 10^-5 M for most compounds. The reported endpoint is percent growth (GI% or GIPRCNT), where numbers from 0 - 100% represent growth inhibition, and numbers from -100% - 0 represent cell death. For example, a value of 40 represents 60% growth inhibition. […]
About 83,000 compounds went through this panel and 20% of them were active in at least one assay; those are over-represented in the sample as a whole. The source made the active and inactive calls. Rule for the calls: active = growth percent below 10; inactive = the rest.
Classes used: active, inactive

compound: Nc1nc(N)c2c(n1)NC(c1ccc(C(F)(F)F)cc1)CC(c1ccc(Nc3nc(NCCO)nc(Nc4ccc(Cl)cc4)n3)cc1)=N2 (centres undefined)
category_label: active

compound: COc1ccc(NC2=CC(=O)C(C)=C(C)C2=O)cc1
category_label: inactive

compound: CCN1C(=S)N(CC)C2C1NN=C1SC(c3ccccc3)=CC(=O)N12 (centres undefined)
category_label: inactive

compound: O=C(c1ccc(Cl)cc1)C1[C@H](c2ccc(Cl)cc2)[C@@H](c2ccccc2)NC12C(=O)Nc1ccc(Br)cc12 (some centres undefined)
category_label: inactive

compound: C#Cc1nc(C2=C(C)C(=N\O)/C(=N/O)C2)cs1
category_label: inactive

compound: CN(C)CCCOc1c2ccc(Cl)cc2nc2c1oc1ccccc12
category_label: active

compound: Cn1cc(-c2cc(N)n3nc(-c4cn(C)c5ccc(F)cc45)cc3n2)c2cc(F)ccc21
category_label: inactive

compound: O=C(CCN1C(=O)/C(=C/c2ccccc2)SC1=S)N1CCOCC1
category_label: inactive

compound: COc1cc(/C=C/C(=O)c2ccccc2)ccc1Oc1nc(NCCO)nc(N2CCOCC2)n1
category_label: inactive

compound: c1ccc(CNc2ncnc3ccc(-c4cnc5[nH]ncc5c4)cc23)cc1
category_label: inactive

compound: O=C(CN1C(=O)/C(=C/c2ccccc2)SC1=S)N1CCOCC1
category_label: inactive

compound: CS(=O)(=O)c1ccc(-c2nc3ccccn3c2/C=N/Nc2nc(-c3ccc(Cl)cc3)cs2)cc1
category_label: inactive

compound: Nc1c(C(=O)c2ccc(Br)cc2)oc2nc(-c3cnccn3)cc(-c3cccs3)c12
category_label: inactive

compound: COc1ccc(-c2csc(N/N=C/c3c(-c4ccc(S(C)(=O)=O)cc4)nc4ccccn34)n2)cc1
category_label: inactive

compound: Clc1ccc2oc3c(NCCCN4CCOCC4)c4ccccc4nc3c2c1
category_label: inactive

compound: N#Cc1nc(-c2ccccc2)oc1S(=O)(=O)N1CCCCC1
category_label: inactive

compound: Clc1ccc2c(NCCCN3CCOCC3)c3oc4ccc(Cl)cc4c3nc2c1
category_label: inactive

compound: O=C1C2=C(C(=O)c3c(O)cccc31)C(c1ccco1)c1sc(=O)[nH]c1S2 (centres undefined)
category_label: inactive

compound: CS(=O)(=O)Nc1ccc(-c2nn(-c3ccc(S(C)(=O)=O)cc3)cc2/C=C/C(=O)c2ccc(NC(=O)CO[N+](=O)[O-])cc2)cc1
category_label: inactive

compound: COc1cccc(NC2=CC(=O)C(C)=C(C)C2=O)c1
category_label: inactive

compound: O=C1[C@H]2Cc3c([nH]c4ccccc34)[C@@H](c3ccc(Br)cc3)N2C(=O)CN1C1CCN(Cc2ccccc2)CC1
category_label: inactive

compound: Cc1c(Nc2nnc(SCC(=O)Nc3sc4c(c3C#N)CCCC4)s2)c(=O)n(-c2ccccc2)n1C
category_label: inactive

compound: CCCC(=O)NC(c1ccc2c(c1)OC(F)(F)O2)c1cc(C)c2cccnc2c1O (centres undefined)
category_label: inactive

compound: COc1cccc(COc2ccc(/C=C3/C(=O)Nc4cc(Cl)ccc43)cc2)c1
category_label: inactive

compound: N#Cc1nc(-c2ccccc2)oc1S(=O)(=O)N1CCN(CCc2ccccn2)CC1
category_label: inactive

compound: C#Cc1nc(C2=C(C)C(O)CC2)cs1 (centres undefined)
category_label: inactive

compound: CS(=O)(=O)c1ccc(-c2nc3ccccn3c2C=Nc2ccc(Cl)cc2)cc1
category_label: inactive

compound: O=C(NNc1nc2cc(F)ccc2n2c(CN3CC4(COC4)C3)ccc12)c1cnccn1
category_label: inactive

compound: O=C(N/N=C/c1ccc(Br)s1)c1[nH]c2ccc(Br)cc2c1-c1ccccc1
category_label: inactive

compound: COc1cc(/C=C/C(=O)c2cc(OC)c(OC)c(OC)c2)ccc1OCc1ccc(F)cc1
category_label: inactive

compound: Cc1ccc(-c2nc(C(Cl)Cl)nc3cc(-c4ccccc4)nn23)cc1
category_label: inactive

compound: N[C@@H](Cc1cn(-c2c3ccccc3nc3ccccc23)nn1)C(=O)O
category_label: inactive

compound: Cc1cccc2sc(/N=C(\N)C(Br)Br)nc12
category_label: inactive

compound: CCCCCCNC(=O)Oc1ccc(/C(=C(/C)c2ccccc2)c2ccc(OCCN3CCCCCC3)cc2)cc1
category_label: inactive

compound: C=C1CC[C@H]2[C@@](C)(CCC3OC(c4ccc(OCc5cn(C6CC(OC(C)=O)C(OC(C)=O)C(COC(C)=O)O6)nn5)cc4)OC[C@]32C)[C@@H]1/C=C/C1=CCOC1=O (some centres undefined)
category_label: inactive

compound: O=C1/C(=C/C2=Cc3ccccc3OC2)SC(=S)N1c1ccc(F)cc1
category_label: inactive

compound: N[C@@H](Cc1cn(-c2ccnc3ccccc23)nn1)C(=O)O
category_label: inactive

compound: Cc1cccc(/C=C/c2nn3c(-c4ccco4)nnc3s2)c1
category_label: inactive

compound: OC1CCc2c(-c3ccc4ncnc(N5CCc6cc(F)c(Cl)cc65)c4c3)cncc21 (centres undefined)
category_label: inactive

Attribution: PubChem BioAssay (NCI)
